Target: Estrogen receptor beta (Homo sapiens, UniProt Q92731)
Sequence (Q92731 whole entry): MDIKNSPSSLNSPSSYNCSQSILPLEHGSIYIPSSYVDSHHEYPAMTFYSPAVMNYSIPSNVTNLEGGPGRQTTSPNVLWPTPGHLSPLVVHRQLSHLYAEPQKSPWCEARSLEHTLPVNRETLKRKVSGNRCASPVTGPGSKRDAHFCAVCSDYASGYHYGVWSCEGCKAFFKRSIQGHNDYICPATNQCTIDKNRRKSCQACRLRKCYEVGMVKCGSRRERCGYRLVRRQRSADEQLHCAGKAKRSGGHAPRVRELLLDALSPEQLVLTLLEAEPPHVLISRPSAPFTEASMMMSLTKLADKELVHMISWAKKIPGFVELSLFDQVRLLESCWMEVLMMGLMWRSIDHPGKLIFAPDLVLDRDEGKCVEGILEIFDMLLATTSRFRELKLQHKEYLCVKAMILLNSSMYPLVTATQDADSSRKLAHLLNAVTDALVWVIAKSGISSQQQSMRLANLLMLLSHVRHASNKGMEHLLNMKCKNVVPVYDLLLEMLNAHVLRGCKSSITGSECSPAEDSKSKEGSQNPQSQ
Endpoint name: EC50 (nM)

# Compound, EC50 [nM]
data = [
    ("Oc1cccc(CC2CCc3cc(O)ccc32)c1 (centres undefined)", 32.5),
    ("Oc1ccc(CC2CCc3c(O)cccc32)cc1 (centres undefined)", 72.4),
    ("Cc1cc(O)ccc1CC1(C#N)CCc2cc(O)ccc21 (centres undefined)", 0.48),
    ("CCCCC1(Cc2ccc(O)cc2)CCc2cc(O)ccc21 (centres undefined)", 6.59),
]

a. CCC(Cc1ccc(O)cc1)c1ccc(O)cc1 (centres undefined) [ISOBUTESROL]
b. CCC(c1ccc(O)cc1)C1CCc2cc(O)ccc21 (centres undefined)
Ask | Smaller EC50 value, a vs b ? # respond with the chosen item's label
Reply | b
(b: 0.1 nM, a: 0.23 nM)

P. N#CC1(Cc2ccc(O)c(F)c2)CCc2cc(O)ccc21 (centres undefined)
Q. Oc1ccc(CC2CCCCc3cc(O)ccc32)cc1 (centres undefined)
Ask | Could you kindly indicate whether P or Q has the higher EC50 value? Mark your selection by writing its label.
Reply | P
(P: 0.91 nM, Q: 0.15 nM)

====

Target: Estrogen receptor (Homo sapiens, UniProt P03372)
Sequence (P03372 whole entry): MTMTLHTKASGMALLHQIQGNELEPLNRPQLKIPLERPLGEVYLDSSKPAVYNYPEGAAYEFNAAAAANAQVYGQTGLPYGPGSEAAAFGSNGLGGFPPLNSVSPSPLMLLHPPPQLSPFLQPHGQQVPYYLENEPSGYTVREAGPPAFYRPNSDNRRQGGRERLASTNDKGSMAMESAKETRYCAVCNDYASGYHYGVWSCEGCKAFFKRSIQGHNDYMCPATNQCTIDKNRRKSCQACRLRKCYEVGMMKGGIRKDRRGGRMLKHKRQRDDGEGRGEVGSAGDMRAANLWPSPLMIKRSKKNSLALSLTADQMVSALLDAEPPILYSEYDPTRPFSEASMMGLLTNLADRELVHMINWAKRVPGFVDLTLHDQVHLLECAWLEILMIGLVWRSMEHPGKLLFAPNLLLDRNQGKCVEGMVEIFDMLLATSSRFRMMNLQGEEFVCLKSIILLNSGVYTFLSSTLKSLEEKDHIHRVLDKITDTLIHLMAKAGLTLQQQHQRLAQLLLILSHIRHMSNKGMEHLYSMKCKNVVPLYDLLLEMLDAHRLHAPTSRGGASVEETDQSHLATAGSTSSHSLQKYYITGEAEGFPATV
Experiment: Agonist activity at human ERalpha receptor expressed in HEK293T cells transfected with pGL4.27-(ERE)3-Luc assessed as transcriptional activation at 10 uM measured after 16 hrs by Dual-Glo luciferase assay relative to 17beta-estradiol
Format: cell-based
Endpoint name: Activity (%)

# Molecule, Observed value
data = [
    ("Oc1ccc(CCc2ccc(O)cc2)cc1", 47),
]

1. N#CC1(Cc2ccc(O)c(Cl)c2)CCc2cc(O)ccc21 (centres undefined)
2. Cc1cc(CC2(C#N)CCc3cc(O)ccc32)ccc1O (centres undefined)
Ask | # query: argmin of Activity over 1 and 2 Label of pick, please.
Reply | 2

====

Target: UniProtKB P03372
Endpoint name: EC50 (nM)

Completed entries (count: 4):
# Molecule, Endpoint name, Result units, Observed value
rows = [
    ("Oc1ccc(CC2CCCCc3cc(O)ccc32)cc1 (stereo unspecified)", "EC50", "nM", 123),
    ("Oc1ccc(CC2CCCc3cc(O)ccc32)cc1 (stereo unspecified)", "EC50", "nM", 102),
    ("N#C[C@]1(Cc2ccc(O)cc2)CCc2cc(O)ccc21", "EC50", "nM", 3020),
    ("CC1(Cc2ccc(O)cc2)CCc2cc(O)ccc21 (stereo unspecified)", "EC50", "nM", 481),
]

P. N#CC1(Cc2ccc(O)c(F)c2)CCc2cc(O)ccc21 (stereo unspecified)
Q. CCC(Cc1ccc(O)cc1)c1ccc(O)cc1 (stereo unspecified)
Ask | Hi there! Just curious which has the higher EC50 between P and Q . Answer format: the label of the selected item.
Reply | P
